Run description: folding stability dG unfold from chymotrypsin proteolysis; higher = more stable
Quantity kind: folding stability dG unfold (kcal/mol)
Give the quantity in kcal/mol, number only.

Observe how each entry below is paired with its result.
Look at this sequence and give its reported folding stability dG unfold. SAGGSAGGSAGGMPPFVELEFVGEFKVNGEKVLVLRLPDGSIRIVNLKTGETITVPASLLSAGGSAGGSAGG [r7_28_JUSTAS] 2.67

And for SAMVITTSLEEARKRTGLSESASPEEVRAAVEALIAAETAAGVTLLAIELLEVGDTWTLRVEIERAGGVSAG [r14_158_JUSTAS] ? 1.72

And for SAGFSVEVTYNPPTGYLEIRFYNPPPNKPLKKETLEEIARKLLEELGIEGEIVEIKEEGNVYTIKVKIPSAG [r14_556_TrMRF] ? 4.65

New cases:
Look at this sequence and give its reported folding stability dG unfold. SAGGGEKWKIKFKDAEAYINAPEGKVEIVPPDGSKITIDFPPDIPPEVVAKLLAEELGFDEAEIEPVESAGG [r13_852_TrMRF] 0.357

And for SAGGSAGGSASSSSSIKFLSEEEIKLPDGTPVKVKIYKDPSNNKEYLYLPESKVWLPISKISAGGSAGGSAG [r3_181_JUSTAS] ? 1.74

And for SAGGSAGGLGWGSFKLPFEFWDPANGMPMRNSINIMVIVIPPPPPKVEVEEDPDNGKKKVTYDDSAGGSAGG [r6_926_TrROS] ? 3.31

---

Run description: folding stability dG unfold (combined trypsin and chymotrypsin); higher = more stable
List of folding stability dG unfold values.
Give the quantity in kcal/mol, number only.

Look at this sequence and give its reported folding stability dG unfold. SAGGSAGGSNWYQFTIPFPIPPDEPVEIKLPDGWEIHEIPPNSGRITIYMPMNNMDAIKEAIGSAGGSAGGS [r12_476_TrROS] 1.19

And for SAGGSAGGSAGPEWYVVMRVENPGTGKEVHFIGPWDDFKEKLPPSNVKMEWHLIPADALKSAGGSAGGSAGG [r11_334_TrROS] ? 0.494

And for SAKKIPLDDAKIRIKMESPNGMIMEFPIKNVQIDPKNGKLSFEFPMRIYNPDNGKERPMRMKIDEIVPVSAG [r14_825_TrROS] ? 0.22

And for SAGGSAGGSKWKISVHPPNGNSWKIDPGDTIKELVDQMSKENGWPYHIHVSKEEAEKLGLKPVSAGGSAGGS [r12_379_TrROS] ? -0.0115

And for SAGGSAGGSSMPFLNPDGHPAVLVEVDGSTGSLSVELRGPDGRPVLQVSVSVSGPATVTVRVGSAGGSAGGS [r12_960_JUSTAS] ? 2.61

And for SAGGSAGGSAGLTLEVELPDGKPFPVEVLEVDPGEEDVVVIRVKVKVGDKEYEVTLVLDLSAGGSAGGSAGG [r17_536_TrMRF] ? 1.9

New cases:
Look at this sequence and give its reported folding stability dG unfold. SAGGSADSVMIPVESPEEIKEELQEGPPKRVELPNPDGERYWIQIDWDDPENIEVMPPDDPEKMKPSAGGSA [r15_11_TrROS] 0.0877

---

Run description: folding stability dG unfold from trypsin proteolysis; higher = more stable
The label depends only on folding stability dG unfold: fulfilled if it is at least 2 kcal/mol, not fulfilled if it is smaller.

Record excerpt, results attached:
Tell me whether folding stability dG unfold is at least 2 kcal/mol here: SAGKKKKKVKKKTVKLTITVKLKPGMTEEEALEKVKELAKALLPPGAKIKEVKFDKETKTVTVEIELTSAGG [r19_81_TrROS_Hall] fulfilled

And for SAGGSAGGSAGPENKNYMVMEMTIDIWIPLPPNAKVVFDPDEGKWKYVPIKIPIRIVMPWSAGGSAGGSAGG [r11_257_TrROS] ? fulfilled

And for SAGGSAGGSAGGGAMSPEPLGFKKVETKVEVVGGSPVIVVKLETPEGELELELPPDAKLSAGGSAGGSAGGS [r10_968_JUSTAS] ? not fulfilled

And for SAGGSAGGMKVTLTPVSGEKYEIEVESEEEAKEKVEKLAKKLGIPGEVKVTIEKGDKTYELTIISAGGSAGG [r6_532_JUSTAS] ? fulfilled

And for SAGGSAGGSAGKMYKLTIEKDGKEIEIIVSEDELKEIAKKLGLPPNAKIKVEKVSPEELKSAGGSAGGSAGG [r17_395_TrROS_Hall] ? fulfilled

New cases:
Tell me whether folding stability dG unfold is at least 2 kcal/mol here: SAGGSAKMVLVKIKVEGMSVEEVKKLLEEAGAKVVKIDEEKKVIIVEVSPEKAEELAKKLGFEVEVSAGGSA [r15_731_TrROS_Hall] fulfilled

And for SAGGGMLLTTTQTITLPNGTLLTVTSTFTLTPPAVPVPVVELDESSIAEYDPATGILTDPSVPTPIPVPSAG [r5_807_JUSTAS] ? not fulfilled

And for SAGGSAALELVEEVSEFYDPNTGKKTTLVVARKDGKPILILIPPSGATVYDASNGNKLFEIPPELLSAGGSA [r15_85_JUSTAS] ? not fulfilled

And for SAGGGPVTVTVTFKPPSTGLTSTVTLPFPNVSSYEEAKERAEELAKEAGGPIETITFTDPATGKAHPLSAGG [r13_771_JUSTAS] ? not fulfilled

And for SAGGSSITVTDETTVEVSPTGSPTGPPVATVTTTTSTTTTTYYDPKTGTSTETTTTTTTTTTSTGASAGGSA [r2_269_JUSTAS] ? not fulfilled

And for SAGGSAGGSAGAGKVVFEVDIKTFLGKRKDGSDAPKTIIEIKVFDIAPLDPNDPVLKALISAGGSAGGSAGG [r11_236_TrMRF] ? fulfilled

And for SAGMKEIKIKDAKIEVKKKKDGKKVKRITLKDGKEIEIKEDGSIIIRNKKTGKYIKLPKNMTIEELLKKSAG [r5_348_TrROS_Hall] ? not fulfilled

And for SAGGKKLLIKVRIEVFNENGELVREEEIEIEVEGMSEEELEELARELLAKLPPENVKIEVEIVELEESAGGS [r16_774_TrROS_Hall] ? fulfilled
